All figures here come from patent US20250250357A1.

- System Under Test: T1, human MSLN-R2-his protein (human, UniProt Q13421 391-486)
- T1 construct: it is put last here; also called human MSLN-R2 protein; hMSLN-R2-his; not shown: His tag
- T1 sequence (Q13421 other isoform, or with tags, fused parts or gaps): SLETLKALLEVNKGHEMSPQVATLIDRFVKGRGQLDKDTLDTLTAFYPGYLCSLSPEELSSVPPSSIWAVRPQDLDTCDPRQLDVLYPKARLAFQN
- Procedure Details: ELISA on coated antigen, no antibody (blank, column 'none')
Observation Type: OD450

Exercise: Look up OD450: S009-F7.65.13 (antibody, human IgG1, kappa, V domains shown, Human-murine chimeric antibody, human IgG1 heavy and kappa light constant regions) VH: EVQLQQSGPELVKPGTSVKILCKASGDTFTAYNMDWVKQRHGQSLEWIGDINPNTDSTIYNQKFEGKAILTVDKSSSTAYMELRSLTSEDTAVYYCARRKLGRGYFDYWGQGTTLTVSS VL: QIVLTQSPAIMSASPGEKVTMTCSVNLSVRYIYWYQQKPGSSPRLLIHDTSNLASGVPVRFSGSGSGTSYSLTISRMEAEDAATYYCQQWSSFPYTFGGGTKLEIKR
Key: 0.07 OD

Exercise: Could you share which OD450 value was measured for S009-F7.44.20 (antibody, human IgG1, kappa, V domains shown, Human-murine chimeric antibody, human IgG1 heavy and kappa light constant regions) VH: EVQLQQSGPELVKPGASVKIPCKASGYTFTDYNMDWVKQSHGKSLEWIGDINPSTGGTIYNQKFNGKATLTEDKSASTVYMEFRSLTSDDTAVYYCARRRIGTGYFDVWGTGTTVTVSS VL: QIVLTQSPALMSASPGEKVTLTCSASSSVISSYLSWYQQKPGSSPKLLIYRTSNLASGVPARFSGSGSGTSYSLTISSMEAEDAASYFCHQWSSFPYTFGGGTKLEIKR ?
Key: 0.06 OD

Exercise: Query (binder): S009-F7.23.19 (antibody, human IgG1, kappa, V domains shown, Human-murine chimeric antibody, human IgG1 heavy and kappa light constant regions) VH: EVKLVESGGGLVQPGGSLSLSCAASGFTFTDYYMSWVRQPPGKALEWLGFIRSKANAYTTEYSASVKGRFTISRDNSQSILYLQMNDLRAEDSATYYCARYYYYGSGYVWYFDVWGTGTTVTVSS VL: DIVMTQSQKFMSTSVGDRVSVTCKASQSVGTNVAWYQQKPGQFPKALIYSASYRYSGVPDRFTGSGSGTDFTLTIINVQSEDLAEYFCQQYNSYPLTFGAGTKLELKR ; field requested: OD450
Key: 0.06 OD
